Tested on: OVCAR-5 ovarian
Method: NCI-60 one-dose screen, 48 h (100 = growth as untreated, 0 = no growth, -100 = all killed)
Condition Description: 10 µM unless noted
The panel holds about 83,000 compounds, 20% with a hit somewhere; the sample as a whole holds those more often.
Reported Property: growth (%)
Record the value in %, omitting the unit from your answer.

Worked cases, answers included:
[in] Given the entry CN(N)c1nc2sc3c(c2c(=O)[nH]1)CCCC3 , report its measured growth.
[out] 131

[in] Query COc1c(C(NC(=O)c2ccccc2)c2sccc2C)cc(Cl)c2cccnc12 (stereo not given) next
[out] 96.6

[in] And then CCc1cc2c(cc1N1CCC(N3CCOCC3)CC1)C(C)(C)c1[nH]c3cc(C#N)ccc3c1C2=O , what is it?
[out] -8.72

New cases:
[in] Quick one: growth of c1cn2cc(-c3ccc4cn[nH]c4c3)nc(Nc3ccc(N4CCOCC4)cc3)c2n1 ?
[out] 64.2

[in] CC(C)c1ccc(/C=N/Nc2nc3ccccc3s2)cc1 ?
[out] 102

[in] Also check CCOC(=O)c1sc(NC(=O)COc2ccc(/C=C3\Cc4ccc(Cl)cc4C3=O)cc2)nc1C
[out] 111

[in] Then what about the molecule O=c1[nH]c(N2CCOCC2)nc2scc(-c3ccccc3)c12 ?
[out] 104

[in] Try this molecule too: O=C(Cc1ccc(-c2ccc(OCCN3CCOCC3)cc2)cn1)NCc1ccccc1
[out] 29.9

[in] Follow-up item: CCN1CCN(c2cc(C)nc(N(CCCNc3ccnc4cc(Cl)ccc34)Cc3ccc4c(c3)OCO4)n2)CC1
[out] 50.2

[in] Please give the result for CCc1cnn2c(NCc3ccc[n+]([O-])c3)cc(N3CCCC[C@H]3CCO)nc12 too.
[out] 4.89
